System: Streptococcus pneumoniae
Assay Details: Determination of MIC values (BHI broth, 96 well microtiter plate)
Assay type: cell-based
Recorded Conditions: Streptococcus pneumoniae; BHI broth, 37° C., about 16 hours; read-out: MIC S. pneu
The following compounds are shown together with reported MIC values.

{"columns": ["Compound String", "MIC"],
 "data": [
  ["Clc1ccc2c(Cl)cc(-c3c[nH]c4ccc(Cl)cc34)nc2c1", "< 7 µg/mL"],
  ["OCc1cc(-c2c[nH]c3ccc(Br)cc23)nc2ccc(Cl)cc12", "< 7 µg/mL"],
  ["COc1ccc2nc(-c3c(C)[nH]c4ccc(C)cc34)ccc2c1", "> 25 µg/mL"],
  ["OCc1cc(-c2c[nH]c3ccc(Br)cc23)nc2c(F)cccc12", "< 7 µg/mL"],
  ["COc1ccc2[nH]cc(-c3ccc4ccc(C)cc4n3)c2c1", "< 25 µg/mL"],
  ["CNCCN(C)C(=O)c1cc(-c2c[nH]c3ccc(Br)cc23)nc2ccc(I)cc12", "< 7 µg/mL"],
  ["COc1ccc(NC(=O)c2cc(-c3c[nH]c4ccc(Br)cc34)nc3ccc(C#CCN4CCCCC4)cc23)cc1", "< 25 µg/mL"],
  ["OCc1cc(-c2c[nH]c3ccc(Br)cc23)nc2ccc(I)cc12", "< 7 µg/mL"],
  ["OCc1cc(-c2c[nH]c3ccc(Br)cc23)nc2cc(F)ccc12", "< 7 µg/mL"],
  ["COc1ccc(NC(=O)NCc2cc(-c3c[nH]c4ccc(Br)cc34)nc3cc(Cl)ccc23)cc1", "< 7 µg/mL"],
  ["COc1ccc2nc(-c3c[nH]c4ccc(OC)cc34)ccc2c1", "< 25 µg/mL"],
  ["O=C(O)c1cc(-c2c[nH]c3ccc(Br)cc23)nc2cc(Cl)c(C#CCN3CCCCC3)cc12", "< 7 µg/mL"],
  ["Clc1ccc2c(Cl)cc(-c3c[nH]c4ccc(Br)cc34)nc2c1", "< 7 µg/mL"],
  ["COc1ccc2nc(-c3c[nH]c4ccccc34)ccc2c1", "> 25 µg/mL"],
  ["Cc1ccc2[nH]cc(-c3ccc4cccc(C)c4n3)c2c1", "> 25 µg/mL"],
  ["Cn1cc(-c2cc(C(=O)NCCN)c3cc(C#CCNCCc4ccc(Cl)cc4)ccc3n2)c2cc(Br)ccc21", "< 7 µg/mL"],
  ["OCc1cc(-c2c[nH]c3ccc(Br)cc23)nc2c(I)cccc12", "< 7 µg/mL"],
  ["OCc1[nH]c2ccc(Cl)cc2c1-c1cc(Cl)c2ccccc2n1", "> 25 µg/mL"],
  ["NCCNC(=O)c1cc(-c2c[nH]c3ccc(Br)cc23)nc2cc(Cl)c(C#CCN3CC=CCC3)cc12", "< 7 µg/mL"],
  ["Cc1ccc2nc(-c3c[nH]c4ccc(O)cc34)ccc2c1", "> 25 µg/mL"],
  ["OCc1cc(-c2c[nH]c3ccc(Br)cc23)nc2ccc(Br)cc12", "< 7 µg/mL"],
  ["Cn1cc(-c2cc(C(=O)NCCN)c3cc(C#CCN4CC=CC4)ccc3n2)c2cc(Br)ccc21", "< 7 µg/mL"],
  ["COc1ccc2[nH]c(C)c(-c3ccc4cc(C)ccc4n3)c2c1", "> 25 µg/mL"],
  ["CN(C)CCN(C)C(=O)c1cc(-c2c[nH]c3ccc(Br)cc23)nc2cc(Cl)c(C#CCN3CCCCC3)cc12", "< 7 µg/mL"],
  ["OCc1cc(-c2c[nH]c3ccc(Br)cc23)nc2cc(Cl)ccc12", "< 7 µg/mL"],
  ["O=C(NCc1cc(-c2c[nH]c3ccc(Br)cc23)nc2cc(Cl)ccc12)NC1CCCCC1", "< 7 µg/mL"],
  ["Cc1cccc2ccc(-c3c[nH]c4cc(F)ccc34)nc12", "> 25 µg/mL"],
  ["Clc1ccc2nc(-c3c[nH]c4ccc(Br)cc34)c3c(c2c1)OCC3", "< 25 µg/mL"],
  ["CN(C)CCN(C)C(=O)c1cc(-c2cn(C)c3ccc(Br)cc23)nc2cc(Cl)ccc12", "< 7 µg/mL"],
  ["Cc1[nH]c2ccc(Cl)cc2c1-c1ccc2cccc(C)c2n1", "< 7 µg/mL"],
  ["COC(=O)c1cc(-c2c[nH]c3ccc(Br)cc23)nc2cc(F)ccc12", "< 7 µg/mL"],
  ["Cc1ccc2nc(-c3c[nH]c4cc(F)ccc34)ccc2c1", "> 25 µg/mL"],
  ["OCc1[nH]c2ccccc2c1-c1cc(Cl)c2ccccc2n1", "> 25 µg/mL"],
  ["Cc1cccc2ccc(-c3c[nH]c4ccc(C#N)cc34)nc12", "> 25 µg/mL"],
  ["COc1ccc2[nH]cc(-c3cc(Cl)c4ccc(Cl)cc4n3)c2c1", "< 7 µg/mL"]
]}
